# System: Plasmodium falciparum
# experiment: Primary screen in NF54 nanoGlo assay, in single point, at 2uM, 72h
# Assay type: functional, Erythrocyte
# condition info: timepoint 72 hour
Screen size: about 150,000 compounds; about 540 (0.36%) showed an effect of 50% or more. What follows is part of a selection rich in strong results, with near analogues and random picks from the rest.
readout label: % Inhibition (%)
# unit: % | format: bare number

Some solved cases for reference:
Cn1cc(N2C[C@@H](C(=O)NCC=Cc3cccnc3)CCC2=O)cn1 : -4
Cc1nc(NC(=O)NCCn2ncnn2)sc1C : 31

Return reported % Inhibition; argument: CN1C(=O)CC[C@@]12CCN(C(=O)Nc1ccc3c(c1)OCCO3)C2
-5

Return reported % Inhibition; argument: COc1ccnc(-c2cc(O)cc(CC[C@H]3CCCCN3)c2)n1
-4

Return reported % Inhibition; argument: CCn1nccc1C=C(C)c1ncccn1
1

Return reported % Inhibition; argument: NC(=O)C1CCN(C(=O)Cc2ccc(-c3ccccc3)cc2)CC1
-4

Return reported % Inhibition; argument: Oc1ccccc1C1=NN[C@@](O)(C(F)(F)C(F)F)C1
-6

Data origin: ChEMBL document CHEMBL4888484
